# Tested on: Leishmania donovani
# ASSAY_TEXT: Antileishmanial activity against Leishmania donovani MHOM/ET/67/L82 axenic amastigotes after 72 hrs by alamar blue staining based fluorescence assay
# Type: functional, organism-based
# STUDY_CONDITIONS: MHOM/ET/67/L82, 72 h
pIC50: −log10 of the molar value. Square brackets hold non-standard residues; d marks the D form. Peptide text beside a SMILES is read from it. * marks the point of attachment. NHPhenethyl = c1ccc(CCN*)cc1; NMeM = CN[C@@H](CCSC)C(=O)O; NMeV = CN[C@H](C(=O)O)C(C)C
REPORTED_PROPERTY: pIC50

CSCC[C@@H](C(=O)N(C)[C@H](C(=O)N(C)[C@H](C(=O)NCCc1ccccc1)C(C)C)C(C)C)N(C)C(=O)[C@@H](N)C(C)C (H-V[NMeM][NMeV][NMeV]-NHPhenethyl); < 4.00
CN[C@H](C(=O)N[C@H](C(=O)N(C)[C@@H](CCSC)C(=O)N(C)[C@H](C(=O)N(C)[C@H](C(=O)NCCc1ccccc1)C(C)C)C(C)C)C(C)C)C(C)C (H-[NMeV]V[NMeM][NMeV][NMeV]-NHPhenethyl); < 4.00
CN[C@H](C(=O)N[C@H](C(=O)N(C)[C@H](C(=O)N(C)[C@H](C(=O)N(C)[C@H](C(=O)NCCc1ccccc1)C(C)C)C(C)C)C(C)C)C(C)C)C(C)C (H-[NMeV]V[NMeV][NMeV][NMeV]-NHPhenethyl); < 4.00
CSCC[C@@H](C(=O)N(C)[C@H](C(=O)N(C)[C@H](C(=O)N(C)[C@H](C(=O)NCCc1ccccc1)C(C)C)C(C)C)C(C)C)N(C)C(=O)[C@@H](N)C(C)C (H-V[NMeM][NMeV][NMeV][NMeV]-NHPhenethyl); 4.03
CSCC[C@@H](C(=O)N[C@H](C(=O)N(C)[C@H](C(=O)N(C)[C@H](C(=O)NCCc1ccccc1)C(C)C)C(C)C)C(C)C)N(C)C(=O)[C@@H](N)C(C)C (H-V[NMeM]V[NMeV][NMeV]-NHPhenethyl); 4.73

# map each molecule to its pIC50
1. CN[C@H](C(=O)N[C@H](C(=O)N(C)[C@H](C(=O)N(C)[C@H](C(=O)N(C)[C@@H](CCSC)C(=O)NCCc1ccccc1)C(C)C)C(C)C)C(C)C)C(C)C (H-[NMeV]V[NMeV][NMeV][NMeM]-NHPhenethyl)
2. CN[C@H](C(=O)N[C@H](C(=O)N(C)[C@H](C(=O)N(C)[C@@H](CCSC)C(=O)NCCc1ccccc1)C(C)C)C(C)C)C(C)C (H-[NMeV]V[NMeV][NMeM]-NHPhenethyl)
3. CN[C@H](C(=O)N[C@H](C(=O)N(C)[C@H](C(=O)N(C)[C@H](C(=O)NCCc1ccccc1)C(C)C)C(C)C)C(C)C)C(C)C (H-[NMeV]V[NMeV][NMeV]-NHPhenethyl)

Return:
1: < 4.00; 2: < 4.00; 3: < 4.00
